Target: EPHB4 (human) (UniProt P54760)
Sequence (P54760 whole entry, looked up): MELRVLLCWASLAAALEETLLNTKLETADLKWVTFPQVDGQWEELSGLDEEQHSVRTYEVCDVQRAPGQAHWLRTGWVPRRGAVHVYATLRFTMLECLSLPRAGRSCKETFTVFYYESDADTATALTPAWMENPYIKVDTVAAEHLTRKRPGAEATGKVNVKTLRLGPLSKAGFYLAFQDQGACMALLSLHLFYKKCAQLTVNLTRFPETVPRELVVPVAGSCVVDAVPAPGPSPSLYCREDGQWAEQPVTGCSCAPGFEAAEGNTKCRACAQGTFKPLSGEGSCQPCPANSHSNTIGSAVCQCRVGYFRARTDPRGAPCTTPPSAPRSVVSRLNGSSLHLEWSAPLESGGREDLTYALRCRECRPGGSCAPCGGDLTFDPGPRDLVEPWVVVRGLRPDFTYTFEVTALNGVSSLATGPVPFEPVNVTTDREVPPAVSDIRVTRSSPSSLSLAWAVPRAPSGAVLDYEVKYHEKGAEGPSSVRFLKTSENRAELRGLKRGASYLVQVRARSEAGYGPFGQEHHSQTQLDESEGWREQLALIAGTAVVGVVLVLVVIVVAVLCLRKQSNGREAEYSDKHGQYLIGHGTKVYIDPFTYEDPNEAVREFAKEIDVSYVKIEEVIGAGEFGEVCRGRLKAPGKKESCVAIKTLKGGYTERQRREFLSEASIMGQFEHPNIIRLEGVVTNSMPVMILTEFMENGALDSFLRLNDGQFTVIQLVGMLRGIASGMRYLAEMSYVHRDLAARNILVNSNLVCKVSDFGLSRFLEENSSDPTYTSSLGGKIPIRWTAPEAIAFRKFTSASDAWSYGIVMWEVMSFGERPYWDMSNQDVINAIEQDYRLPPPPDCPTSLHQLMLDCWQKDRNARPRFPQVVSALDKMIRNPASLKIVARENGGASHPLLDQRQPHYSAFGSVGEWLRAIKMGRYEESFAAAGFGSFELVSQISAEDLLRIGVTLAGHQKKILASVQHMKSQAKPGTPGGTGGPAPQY
Assay: KINOMEscan competition binding
Conditions: compound 10.0 µM
Catalogue of kinase still bound, per cent of control values
endpoint_label: kinase still bound, per cent of control

> print(dat)
                                smiles.input           target.or.test.system  observed.value
 1  N#CCNC(=O)c1ccc(-c2ccnc(Nc3ccc(N4CCOCC4)cc3)n2)cc1  EPHB4 (human) (UniProt P54760)            100%
 2  O=C1NC(=O)/C(=C/c2ccc3nccc(-c4ccncc4)c3c2)S1  EPHB4 (human) (UniProt P54760)             74%
 3  O=c1cc(N2CCOCC2)oc2c(-c3cccc4c3sc3ccccc34)cccc12  EPHB4 (human) (UniProt P54760)             87%
 4  CS(=O)(=O)N1CCN(Cc2cc3nc(-c4cccc5[nH]ncc45)nc(N4CCOCC4)c3s2)CC1  EPHB4 (human) (UniProt P54760)            100%
 5  CCN1CCN(C(=O)Cc2ccc(Nc3ncc(F)c(Nc4ccc(C(=O)Nc5ccccc5Cl)cc4)n3)cc2)CC1  EPHB4 (human) (UniProt P54760)             76%
 6  COc1cc2ncnc(-n3nc(-c4ccccn4)nc3N)c2cc1OC  EPHB4 (human) (UniProt P54760)             22%
 7  Cc1n[nH]c2ccc(-c3cncc(OC[C@@H](N)Cc4c[nH]c5ccccc45)c3)cc12  EPHB4 (human) (UniProt P54760)            100%
 8  COc1cc(N2CCN(C)CC2)ccc1Nc1ncc2c(n1)N(C)c1ccccc1C(=O)N2C  EPHB4 (human) (UniProt P54760)            100%
 9  C=CC(=O)Nc1cc(-n2c(=O)ccc3cnc4ccc(-c5cn[nH]c5)cc4c32)ccc1C  EPHB4 (human) (UniProt P54760)            100%
10  NC(=O)Nc1cc(-c2cccc(F)c2)sc1C(=O)N[C@@H]1CCCNC1  EPHB4 (human) (UniProt P54760)            6.4%
